Quick list: Ratio per entry.
- Test system: Rattus norvegicus
- measurement notes: Ratio of serum LDL cholesterol to serum HDL cholesterol in 14 days high cholesterol diet fed Wistar albino rat at 20 mg/kg, po administered on day 8 to 14
- Type: functional

Solved cases (3 shown):
- smiles str: "Cc1cccc(OC(C)(C)C(=O)N/N=C/c2ccccc2Cl)c1"
  measured on: "Rattus norvegicus"
  Ratio: 6
- smiles str: "Cc1cccc(OC(C)(C)C(=O)N/N=C/c2ccc([N+](=O)[O-])cc2)c1"
  measured on: "Rattus norvegicus"
  Ratio: 5.71
- smiles str: "Cc1cccc(OC(C)(C)C(=O)N/N=C/c2ccccc2)c1"
  measured on: "Rattus norvegicus"
  Ratio: 4.94

Provide the reported Ratio (system: Rattus norvegicus) for CCOC(=O)c1ccc(NC(=O)C(C)(C)Oc2cccc(C)c2)cc1 5.2

Provide the reported Ratio (system: Rattus norvegicus) for Cc1cccc(OC(C)(C)C(=O)O)c1 4.62

Provide the reported Ratio (system: Rattus norvegicus) for CCNC(=S)NNC(=O)C(C)(C)Oc1cccc(C)c1 6.08

Provide the reported Ratio (system: Rattus norvegicus) for Cc1cccc(OC(C)(C)C(=O)NCCc2ccccc2)c1 4.09

Provide the reported Ratio (system: Rattus norvegicus) for COc1ccc(NC(=O)C(C)(C)Oc2cccc(C)c2)cc1 3.93

Provide the reported Ratio (system: Rattus norvegicus) for Cc1ccc(C)c(OCCCC(C)(C)C(=O)O)c1 4.81

Provide the reported Ratio (system: Rattus norvegicus) for C=CCNC(=S)NNC(=O)C(C)(C)Oc1cccc(C)c1 6.02

Provide the reported Ratio (system: Rattus norvegicus) for COc1ccc(/C=N/NC(=O)C(C)(C)Oc2cccc(C)c2)cc1 5.41

---

- System: Rattus norvegicus
- measurement notes: Hypolipidemic activity in 14 days high cholesterol diet fed Wistar albino rat hyperlipidemic model assessed as decrease in serum total cholesterol level at 20 mg/kg, po administered on day 8 to 14
- Format: functional
- Parameters: scale not given: the % may be the effect or the level left
Quick list: Activity per entry.
Number only, in %; omit the unit.

- smiles str: "C=CCNC(=S)NNC(=O)C(C)(C)Oc1cccc(C)c1"
  unit tag: "%"
  Activity: -1.77
- smiles str: "COc1ccc(NC(=O)C(C)(C)Oc2cccc(C)c2)cc1"
  unit tag: "%"
  Activity: 23.24
- smiles str: "Cc1cccc(OC(C)(C)C(=O)O)c1"
  unit tag: "%"
  Activity: 15.89
- smiles str: "Cc1cccc(OC(C)(C)C(=O)N/N=C/c2ccccc2)c1"
  unit tag: "%"
  Activity: 4.12
- smiles str: "Cc1cccc(OC(C)(C)C(=O)NCCc2ccccc2)c1"
  unit tag: "%"
  Activity: 12.95
- smiles str: "CCOC(=O)c1ccc(NC(=O)C(C)(C)Oc2cccc(C)c2)cc1"
  unit tag: "%"
  Activity: 2.65

Kindly indicate its recorded Activity. Item: Cc1cccc(OC(C)(C)C(=O)N/N=C/c2ccccc2Cl)c1 0

Kindly indicate its recorded Activity. Item: Cc1cccc(OC(C)(C)C(=O)N/N=C/c2ccc([N+](=O)[O-])cc2)c1 0.29

Kindly indicate its recorded Activity. Item: Cc1ccc(C)c(OCCCC(C)(C)C(=O)O)c1 4.68

Kindly indicate its recorded Activity. Item: CCNC(=S)NNC(=O)C(C)(C)Oc1cccc(C)c1 -0.59

---

Quick list: Activity per entry.
- Tested on: Rattus norvegicus
- measurement notes: Hypolipidemic activity in 14 days high cholesterol diet fed Wistar albino rat hyperlipidemic model assessed as decrease in serum triglyceride level at 20 mg/kg, po administered on day 8 to 14
- Assay type: functional
- Design: scale not given: the % may be the effect or the level left
Number only, in %; omit the unit.

Kindly indicate its recorded Activity. Item: Cc1cccc(OC(C)(C)C(=O)NCCc2ccccc2)c1 1.2

Kindly indicate its recorded Activity. Item: C=CCNC(=S)NNC(=O)C(C)(C)Oc1cccc(C)c1 -1.61

Kindly indicate its recorded Activity. Item: CCNC(=S)NNC(=O)C(C)(C)Oc1cccc(C)c1 5.44

Kindly indicate its recorded Activity. Item: Cc1cccc(OC(C)(C)C(=O)O)c1 17.98

Kindly indicate its recorded Activity. Item: CCOC(=O)c1ccc(NC(=O)C(C)(C)Oc2cccc(C)c2)cc1 0.43

Kindly indicate its recorded Activity. Item: COc1ccc(NC(=O)C(C)(C)Oc2cccc(C)c2)cc1 25.79

Kindly indicate its recorded Activity. Item: COc1ccc(/C=N/NC(=O)C(C)(C)Oc2cccc(C)c2)cc1 9.03

Kindly indicate its recorded Activity. Item: Cc1cccc(OC(C)(C)C(=O)N/N=C/c2ccccc2Cl)c1 -1.32

Kindly indicate its recorded Activity. Item: Cc1cccc(OC(C)(C)C(=O)N/N=C/c2ccccc2)c1 2.54

Kindly indicate its recorded Activity. Item: Cc1cccc(OC(C)(C)C(=O)N/N=C/c2ccc([N+](=O)[O-])cc2)c1 -0.84

Kindly indicate its recorded Activity. Item: Cc1ccc(C)c(OCCCC(C)(C)C(=O)O)c1 [GEMFIBROZIL] 22.23
